Entry source: the domain aggregation screens of Martell et al. (2025)

assay: soluble fraction after stress (log2 fold change); higher = more stays soluble; pooled small domains, quantitative proteomics; conditions: stress: 50 degC
The following sequences are listed with their measured soluble fraction (log2) values.

Use the examples below as a reference point.
sequence-record | soluble fraction (log2)
HMLDPYNVLGVPRDAGMDEIKKAYRKLSRTYHPDANIDNPNKAQAEEKFKQIQEAYQQIVKERTE | -0.384
HMSVPSVAAVREQTGLSQVKFASLLGVSVRTLQEWEQGRRAPSGAARTLLMVAAKNPQALLEV | -0.584
HMTEWSIHEVAQRSGVTTRTLRHYDAIGILSPTRTGANGYRYYGPEALVRLQRILLLRDLGLALSDIAE | -4.61
HMRSHLSANLQRLRHIAGLTQKDLALAANLPRATLASLEQGEANPRLDTLLAVASALQVGLDELIAAP | -0.866
HMSVTYRLLITSSPGQAEVFLDGKRVGITPFSARLAAGWYQVRVSKEGYNLWEQHVQLREDQRLTATLT | -0.471
HMNVAETITLGKRLFNHALTILGKKQRNISRKQLKNFLNDLGLKDSKDLYESIGTGDKNPILMAQLLLG | -0.509
HMRRVGTALNRSHKVSYGESIQSIAARYNVNPTMLREYNRLKPEATITPGQILRIPPATIAS | 0.00426
HMYAMTAEDWIVSGNRKYINDDLQGAIADYTKAIEIDPNYAAIYLVRGKAKYELKNYQGAIEDYTKAIE | -1.13

### Prompt Would you mind telling me what soluble fraction (log2) value was observed for `HMEGIAEILPASVRQKYGLIGLYDALRGLHFPGNMEEIKAARQRLAFEDTLMFSLTLSMMQYS` ?
### Response -0.0198

### Prompt Would you mind telling me what soluble fraction (log2) value was observed for `HMIRILIVDDSAFMRKLLSDVFEEDKNFVVVDTARNGQDAVEKVKRLKPDLVTMDVEMPVMDGLTAVEIIM` ?
### Response -0.36

====

assay: soluble fraction after stress (log2 fold change); higher = more stays soluble; pooled small domains, quantitative proteomics; settings: stress: 50 degC
measured-metric: soluble fraction (log2)
# answer = number (no unit)

Use the examples below as a reference point.
sequence-record | soluble fraction (log2)
HMAARKDLIAGEDAEGRLDAWLAAALDGEFSRNRVKALIEQGAVAINDVAVTEPKRKIRPGDRLSIVLPEP | 0.339
HMVQMKIRAYELEPNDFFIKQNMTYRVMRIQNGMIYAKHLLNSTPITFGAKSMEFVLWTGKYS | -2.36
HMDGVYLKSLKQTEQHIHWSGYAQSNAWVSTLMRNLDASPWFESPLLIEIKAATINNSRSNEFDLNVRL | 0.0711

### Prompt Would you mind telling me what soluble fraction (log2) value was observed for `HMTMVVIMNADATQADIEGVISAIEEKGLEAKVMEGAHQKIVGVIGDKTKLAATPLDAMHGVETTVAIS` ?
### Response -0.0878

### Prompt Would you mind telling me what soluble fraction (log2) value was observed for `HMISEKEIKIIEDILARWNGKLTWDDFTSKVAKKLNLPSLSKFTLMGYPEIKQAFLTRKQTLK` ?
### Response -0.328

### Prompt Would you mind telling me what soluble fraction (log2) value was observed for `HMAPNVEENSKLIGEIGMTLTPLRPSGIATINNRRVDVVSNGDFIDQDERVMVKRVQGARVVVIPV` ?
### Response 0.109

### Prompt Would you mind telling me what soluble fraction (log2) value was observed for `HMNFHLEHHIAELLYRSIRGELSDFERQELNQWRSDSPMHETLFMRLQDDEYIDEELGVFIK` ?
### Response -1.99

### Prompt Would you mind telling me what soluble fraction (log2) value was observed for `HMKRTMVEAAMVAKLFNLTVRRIQQLTQDGVLTTELVDKKRRYDLLLTVQKYIAYLQEKVAK` ?
### Response -3.24

### Prompt Would you mind telling me what soluble fraction (log2) value was observed for `HMDQNVSVPKLAGLQVEEANAILKSKGLHIEIIDSIYQKDAVPGAIIEQVPEENSKVKKGRAIYVSVYAK` ?
### Response -0.227

### Prompt Would you mind telling me what soluble fraction (log2) value was observed for `HMDRDMGSMTDFENVRDAYLTGKVWNVGDLIEANGITGIIIRKGTNYVSYNDGDGKVHKAWLHDITL` ?
### Response -0.886
